Test: P-glycoprotein substrates identified in KB-8-5-11 adenocarcinoma cell line, qHTS therapeutic library screen (AID 1346987); also: nearly all actives have a fitted effect of over 65% in size
Conditions: KB-8-5-11 (P-gp overexpressing) viability, CellTiter-Glo, 72 h; series mostly up to 44.5 µM
Description: The ATP-binding cassette transporters P-glycoprotein (P-gp) is known to limit brain penetration of many chemotherapy drugs. […] All cell lines were plated into 1536-well plates at 500 cells/well in 5 uL media. […] CellTiter-Glo reagent (Promega) was dispensed into the wells, incubated for 5 min and luminescence was read on a ViewLux instrument (Perkin-Elmer). […]
Inconclusive results are not listed. The source made the active and inactive calls. Calls follow the shape of the dose curve; as a rule, active = well fitted inhibition curve with a large enough effect; inconclusive = small, poorly fitted or top-dose-only effect; inactive = flat fitted curve, though single readings scatter.
Classes used: active, inactive

INSERT INTO results (compound, classification) VALUES
  ('C/C=C/C=C/C(=O)O[C@@H]1C=C2COC(=O)[C@]2(O)[C@@]2(C)CCCC(C)(C)[C@H]12', 'inactive'),
  ('C[C@@H](Nc1ncnc2[nH]c(-c3ccc(O)cc3)cc12)c1ccccc1', 'active'),
  ('Cc1ccc(CNc2ncnc3ccc(-c4ccc(CO)o4)cc23)o1', 'inactive'),
  ('CO[C@@H]1[C@@H](O[C@@H]2O[C@H](C)[C@@H](O[C@H]3C[C@@](C)(O)[C@@H](OC(=O)CC(C)C)[C@H](C)O3)[C@H](N(C)C)[C@H]2O)[C@@H](CC=O)C[C@@H](C)[C@@H](O)/C=C/C=C/C[C@@H](C)OC(=O)C[C@H]1O', 'inactive'),
  ('COC1CC(O[C@H]2CC[C@]3(C)C4CC[C@@]5(C)C(=O)[C@]4(CC[C@@H]3C2)CC[C@@H]5C2=CC(=O)OC2)OC(C)C1OC1OC(COC2OC(CO)C(O)C(O)C2O)C(O)C(O)C1O (stereo partly drawn)', 'active'),
  ('COC(=O)c1ccc(N2CCN(C)CC2)c(NC(=O)c2cccc(OC)c2)c1', 'inactive'),
  ('C=C1CCC[C@]2(C)CC/C(=C(/CO)C(=O)OC)C[C@@H]12', 'inactive'),
  ('O=C(NC1(c2ccccc2)CC1)c1c(CN2CCC(N3CCCCC3)CC2)c(-c2cccc(C(F)(F)F)c2)nc2cc(Br)ccc12', 'active');

* * *

Listing of recorded activity, negative = cell killing by entry.
assay: Drug repurposing screens with cells derived from glioblastoma tumor samples (AID 1345199); conditions: GBM patient neurospheres viability, ATP luminescence, 48 h; at 46.1 µM (top of the series); tumour line C; also: % is scaled to controls: 0 for no effect and ±100 for the full control effect; nearly all actives have a fitted effect of over 40% in size
Inconclusive results are not listed.
Recorded metric: activity, negative = cell killing (%)

INSERT INTO assay_data (compound, recorded_metric, measurement) VALUES
  ('O.O=C([O-])CC([S-])C(=O)[O-].[Au+].[Na+].[Na+] (centres undefined)', 'activity, negative = cell killing', 15.2),
  ('O=c1[nH]cnc2[nH]cc(CN3CCCCC3)c12', 'activity, negative = cell killing', -8.31),
  ('CN1CCN(C2=Nc3ccccc3Cc3ccccc32)CC1', 'activity, negative = cell killing', -28.3),
  ('O=C(O)c1cccc(/C=C2/C[C@@H]3[C@@H](/C=C/[C@@H](O)C4CCCCC4)[C@H](O)C[C@@H]3O2)c1', 'activity, negative = cell killing', -8.79),
  ('O=P(O)(O)C(O)(Cc1cnc2ccccn12)P(=O)(O)O', 'activity, negative = cell killing', 2.63),
  ('CCN(CC)c1ccc(N=Nc2ccc(S(=O)(=O)N(C)C)cc2)c(S(=O)(=O)NCC[n+]2ccccc2)c1', 'activity, negative = cell killing', -10.2),
  ('CCCCCCCCCC(=O)O', 'activity, negative = cell killing', -4.57),
  ('C[C@H]1C[C@H]2[C@@H]3CCC4=CC(=O)C=C[C@]4(C)[C@@]3(F)[C@@H](O)C[C@]2(C)[C@@]1(O)C(=O)CCl', 'activity, negative = cell killing', 12.3),
  ('C[C@@H]1C[C@H]2C3C[C@H](F)C4=CC(=O)C=CC4(C)[C@@]3(F)[C@@H](O)CC2(C)[C@@]1(O)C(=O)COC(=O)C(C)(C)C (some centres undefined)', 'activity, negative = cell killing', 2.01);
